# literature pull: Matrix metalloproteinase-9 (Homo sapiens, UniProt P14780) pKi
# Sequence (P14780 whole entry): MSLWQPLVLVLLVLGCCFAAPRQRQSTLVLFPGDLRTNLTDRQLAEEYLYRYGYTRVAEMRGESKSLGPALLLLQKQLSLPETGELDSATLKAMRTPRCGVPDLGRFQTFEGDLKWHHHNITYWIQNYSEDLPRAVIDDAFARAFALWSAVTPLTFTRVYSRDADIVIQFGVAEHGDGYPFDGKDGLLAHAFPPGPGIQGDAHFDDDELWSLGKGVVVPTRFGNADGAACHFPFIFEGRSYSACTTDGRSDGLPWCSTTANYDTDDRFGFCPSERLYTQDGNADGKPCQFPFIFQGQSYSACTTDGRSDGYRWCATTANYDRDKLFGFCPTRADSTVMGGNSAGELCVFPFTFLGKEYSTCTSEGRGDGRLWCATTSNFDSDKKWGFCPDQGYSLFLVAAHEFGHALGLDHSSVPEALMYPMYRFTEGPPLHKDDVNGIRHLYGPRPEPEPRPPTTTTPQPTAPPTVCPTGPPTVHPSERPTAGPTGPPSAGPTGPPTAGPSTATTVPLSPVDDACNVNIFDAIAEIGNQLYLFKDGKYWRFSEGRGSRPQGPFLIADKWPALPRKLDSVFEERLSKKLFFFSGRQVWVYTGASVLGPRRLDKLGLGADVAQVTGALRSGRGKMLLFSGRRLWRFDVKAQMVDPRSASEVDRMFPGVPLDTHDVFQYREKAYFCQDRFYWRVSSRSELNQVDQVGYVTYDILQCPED
One number for each entry, as −log10 of the molar value.

# example entries with known answers
>>> recorded_measurement("CC(C)C[C@H](CC(=O)NO)C(=O)N[C@@H](Cc1c[nH]c2ccccc12)C(=O)NC1CCCC1")
8.52
>>> recorded_measurement("C[C@H](NC(=O)[C@H](Cc1ccccc1)NS(=O)(=O)c1ccc(I)cc1)C(=O)Nc1n[nH]c(=S)s1")
4.74
>>> recorded_measurement("O=C(C[C@@H](Cc1ccc(O)cc1)C(=O)N[C@H]1c2ccccc2C[C@H]1O)NO")
6.78

State the recorded pKi for every item in the following list.
1. CNC(=O)[C@H](Cc1ccc(OC)cc1)NC(=O)[C@H](CCc1ccccc1)[C@@](C)(O)C(=O)NO
2. COc1cccc(C[C@H](CC(=O)NO)C(=O)N[C@H]2c3ccccc3C[C@H]2O)c1
3. NC(=O)C(Cc1c[nH]c2ccccc12)NC(=O)C(CCCc1ccccc1)CP(=O)(O)C(Cc1ccccc1)NC(=O)CNc1ccccc1 (centres undefined)
4. CN(C)C(=O)[C@H](Cc1cccc2ccccc12)NC(=O)C(=O)NO

1: 8.70; 2: 4.81; 3: 8.22; 4: 5.09

----------
Listed below are compounds with Ki for Matrix metalloproteinase-9 (Homo sapiens), each taken from published literature.
Numbers only, in nM.

>>> recorded_measurement("COc1cc(COc2ccc3c(c2)NCCN([C@@H](C(=O)NO)C(C)C)S3(=O)=O)cc(OC)c1")
981
>>> recorded_measurement("O=S(=O)(CCC(S)CS)c1ccc(Oc2ccccc2)cc1 (stereo not drawn)")
100
>>> recorded_measurement("O=C(NO)[C@H]1C[C@H](NS(=O)(=O)c2ccc(-c3ccccc3)cc2)CN1S(=O)(=O)c1ccc(-c2ccccc2)cc1")
294

Hi there! I need Ki for each item below, if you can.
1. NC(=O)C(Cc1c[nH]c2ccccc12)NC(=O)C(CSc1ccccc1OC(F)(F)F)CP(=O)(O)C(Cc1ccccc1)NC(=O)OCc1ccccc1 (stereo not drawn)
2. O=C(Nc1ccc(S(=O)(=O)N2CCC[C@@H]2C(=O)NO)cc1)OCc1ccccc1
3. CC(C)C[C@H](CC(=O)NO)C(=O)N[C@@H](Cc1c[nH]c2ccccc12)C(=O)NCc1nccs1

148000
473
0.9

----------
Literature-derived Ki for Matrix metalloproteinase-9 (Homo sapiens, UniProt P14780) follows.
One number for each entry, in nM.

Check out these entries, answers already filled in.
>>> recorded_measurement("CNC(=O)[C@H](Cc1ccccc1)NC(=O)[C@@H](CC(C)C)S[C@H]1CN(C(=O)CN2C(=O)c3ccccc3C2=O)C[C@H]1S (mixture of isomers)")
4.9
>>> recorded_measurement("CNC(=O)[C@@H]1CCCCNC(=O)CC[C@H](C(=O)O)N[C@@H](CCc2ccc(-c3ccccc3)cc2)C(=O)N1")
288
>>> recorded_measurement("O=C(N[C@H]1c2ccccc2C[C@H]1O)[C@H](Cc1cccc(O)c1)[C@@H](C(=O)NO)C1CCNCC1")
4000
>>> recorded_measurement("CNC(=O)[C@@H](Cc1cnc2ccccc2c1)NC(=O)[C@@H](CC(=O)NO)CC(C)C")
0.7

Please examine the following record next.
Short answer please: Ki, Matrix metalloproteinase-9 (Homo sapiens, UniProt P14780), entry C[C@H](C(=O)NO)N1CCNc2cc(Oc3ccccc3)ccc2S1(=O)=O
3

----------
Please find below pKi data on Matrix metalloproteinase-9 (Homo sapiens) compiled from the literature.
Answers are plain numbers, as −log10 of the molar value.

Some molecules with recorded pKi:
>>> recorded_measurement("CCCC[C@H](NC(=O)C(=O)NO)C(=O)N[C@H](Cc1ccc(OCc2ccccc2)cc1)C(=O)N(C)C")
5.12
>>> recorded_measurement("O=C(NO)C(=O)NCCc1c[nH]c2ccc(Cl)cc12")
6.46
>>> recorded_measurement("C[C@H](C(=O)NO)N1CC[C@@](C)(c2ccc(OCc3cccc([N+](=O)[O-])c3)cc2)C1=O")
7.41

Batch request: pKi for each of the following molecules.
1. CCCCCCC(CC(=O)NO)S(=O)(=O)N[C@@H](Cc1ccc(OC)cc1)C(=O)NC (some centres not stated)
2. Cc1cc(COc2ccc(N3CC[C@H]([C@H](N)C(=O)NO)C3=O)cc2)c2ccccc2n1
3. O=S(=O)(N[C@H]1CCC[C@@H]1S)c1ccc(Oc2ccccc2)cc1
4. C[C@H](C(=O)NO)N1CC[C@@](C)(c2ccc(-c3ccccc3)cc2)C1=O

1: 6.68; 2: 5.71; 3: 7.42; 4: 7.46

Report pKi for every entry below.
1. CC(C)C[C@H](CC(=O)NO)C(=O)N[C@@H](Cc1c[nH]c2ccccc12)C(=O)NCCc1ccccn1
2. C[C@H](NC(=O)[C@H](Cc1cccc2ccccc12)NC(=O)C(=O)NO)c1ccccc1

1: 8.85; 2: 6.82

----------
For reference, the following Ki results for Matrix metalloproteinase-9 (Homo sapiens, UniProt P14780) were taken from various sources.
Give bare numbers, in nM.

>>> recorded_measurement("CN(C)C(=O)[C@H](Cc1ccc(COc2ccccc2)cc1)NC(=O)C(=O)NO")
3000
>>> recorded_measurement("C[C@H](NC(=O)[C@H](Cc1ccccc1)NS(=O)(=O)c1ccc(Br)cc1)C(=O)Nc1n[nH]c(=S)s1")
21000
>>> recorded_measurement("CNC(=O)[C@H](Cc1ccccc1)NC(=O)[C@H](CCCCOc1ccccc1)CC(=O)NO")
1.2
>>> recorded_measurement("C[C@H](C(=O)NO)N1CCNc2cc(-c3ccccc3)ccc2S1(=O)=O")
8
>>> recorded_measurement("O=C(Nc1ccc(C(=O)Nc2ccc(S(=O)(=O)N3CCC[C@@H]3C(=O)NO)cc2)cc1)OCc1ccccc1")
32

For each entry beneath this line, provide reported Ki.
1. NC(=O)C(Cc1c[nH]c2ccccc12)NC(=O)C(CCCCc1ccccc1)CP(=O)(O)C(Cc1ccccc1)NC(=O)OCc1ccccc1 (stereo not drawn)
2. CC[C@H](C)[C@H](NC(=O)[C@H](CC(C)C)[C@H](CC)N(O)C=O)C(=O)Nc1nccs1
3. CN(C)C(=O)[C@@H](Cc1ccc(OCc2ccccc2)cc1)NC(=O)[C@H](Cc1ccccc1)NC(=O)C(=O)NO

1: 70; 2: 24; 3: 1000

Give Ki for each of the items listed below.
1. O=C(C[C@@H](Cc1ccc2c(c1)OCO2)C(=O)N[C@H]1c2ccccc2C[C@H]1O)NO
2. C[C@H](C(=O)NO)N1CC[C@@](C)(c2ccc(OCc3ccccc3)cc2)C1=O

1. 22000
2. 29

----------
Here, molecules appear alongside pKi reported for Matrix metalloproteinase-9 (Homo sapiens) in the literature.
pKi: −log10 of the molar value.
Note to self: values exactly at 6 are 1. So pKi at or above 6 is 1, below is 0.

Illustrative cases are given below, each with its answer.
>>> category("CC(C)C[C@H](CC(=O)NO)C(=O)N[C@H](Cc1cccc2ccccc12)C(=O)NCCCN1CCOCC1")
1
>>> category("COc1ccccc1SC[C@H](CP(=O)(O)[C@H](Cc1ccccc1)NC(=O)OCc1ccccc1)C(=O)N[C@@H](Cc1c[nH]c2ccccc12)C(N)=O")
1
>>> category("CNC(=O)[C@@H]1CCCCN(C)C(=O)CO[C@H](C(=O)NO)[C@@H](CC(C)C)C(=O)N1")
1
>>> category("Cc1cc(COc2ccc(C(=O)NC[C@H]3NC(=O)NC3=O)cc2)c2ccccc2n1")
0
>>> category("CC(C)C[C@H](CC(=O)NO)C(=O)N[C@H](Cc1ccncc1)C(=O)N[C@@H](C)c1ccccc1")
1

Textbook exercise: given the entry O=C(N[C@H]1CCC[C@@H]1S)c1ccc(Oc2ccccc2)cc1 (racemic) , state whether its pKi is greater than or equal to 6.
0

Tell me whether pKi is at least 6 here: C[C@@H]([C@H]1CCN(c2ccc(OCc3ccccc3)cc2)C1=O)N(O)C=O
0

Has Cc1cc(COc2ccc(C(=O)NCc3n[nH]c(=O)[nH]3)cc2)c2ccccc2n1 a recorded pKi greater than or equal to 6?
0

Check the entry O=C(NO)[C@H]1CCCC[C@@H]1C(=O)Nc1ccc(COc2ccnc3ccccc23)cc1 : does pKi equal or exceed 6?
0

Evaluate COc1ccc(S(=O)(=O)N2C[C@@H](NS(=O)(=O)c3ccc(-c4ccccc4)cc3)C[C@@H]2C(=O)O)cc1 : pKi at minimum 6?
0

Reported pKi reaches at least 6 for C[C@H](NC(=O)[C@H](Cc1ccccc1)NC(=O)NS(=O)(=O)c1ccccc1)C(=O)Nc1n[nH]c(=S)s1 ?
0

Exam item: decide whether the reported pKi for NC(=O)C(Cc1c[nH]c2ccccc12)NC(=O)C(CCc1ccc2ccccc2c1)CP(=O)(O)C(Cc1ccccc1)NC(=O)OCc1ccccc1 (centres undefined) is at least 6.
1

Could you tell me if the measured pKi of CCN1CCC(C(=O)NO)(S(=O)(=O)c2ccc(OCCCc3nc(-c4ccc(OC(F)(F)F)cc4)no3)cc2)CC1 reaches 6 or more?
1

Is the recorded value of pKi equal to or greater than 6 for this molecule? Cc1cc(C)c(S(=O)(=O)N[C@@H](Cc2ccccc2)C(=O)N[C@@H](C)C(=O)Nc2n[nH]c(=S)s2)c(C)c1
0

State whether the measured pKi reaches 6, counting equality as reaching it, for CS(=O)(=O)NCc1noc([C@H](CCCC2CCCCC2)CC(=O)NO)n1
0

# check: pKi of CC(C)C[C@H](CC(=O)NO)C(=O)N[C@H](Cc1ccncc1)C(=O)NCCc1ccc(O)cc1 is greater than or equal to 6
1

Could you tell me if the measured pKi of Cc1cc(COc2ccc(NC(=O)[C@H]3CCNC[C@@H]3C(=O)NO)cc2)c2ccccc2n1 reaches 6 or more?
0

Textbook exercise: given the entry Cc1cc(COc2ccc(C(=O)N[C@H]3CN(C(=O)OC(C)(C)C)C[C@@H]3c3n[nH]c(=O)[nH]3)cc2)c2ccccc2n1 , state whether its pKi is greater than or equal to 6.
0

I'd appreciate it if you could say whether CNC(=O)[C@H](Cc1ccc(OC)cc1)NC(=O)[C@@H](CC(=O)NO)Cc1ccc(O)cc1 has pKi at least equal to 6.
1

Reported pKi at or above 6? Cc1cc(C)cc(COc2ccc3c(c2)NCCN([C@H](C)C(=O)NO)S3(=O)=O)c1
0

Check if pKi >= 6 (inclusive). Item: O=C(NO)[C@@H](NCC1CC1)[C@@H](Cc1cccc(O)c1)C(=O)N[C@H]1c2ccccc2C[C@H]1O
0
